Where these numbers come from: the RNAGym collection of RNA variant scans (doi:10.7554/elife.90254)

B1: OR4K15 (parent)
chain: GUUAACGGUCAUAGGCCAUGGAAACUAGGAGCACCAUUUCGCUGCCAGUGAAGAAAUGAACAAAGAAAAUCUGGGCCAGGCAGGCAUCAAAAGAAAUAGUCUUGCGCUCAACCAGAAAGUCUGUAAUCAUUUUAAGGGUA

Variants of: B1
Experiment: self-cleavage, relative activity (ratio to wild type); higher = more cleavage; in vitro, sequencing; the parent is a self-cleaving ribozyme
Documented self-cleavage across a set of variants
Endpoint: self-cleavage

Variant name | Endpoint | Reported
U37C U103C | self-cleavage | 0.32
A60C | self-cleavage | 1.7
G41A A94G | self-cleavage | 1.9
A52C G75U | self-cleavage | 0.33
U87C A126U | self-cleavage | 1.18
A56G A59G | self-cleavage | 1.2
A56G U139C | self-cleavage | 0.78
G21A G106A | self-cleavage | 0.02
A82U A92G | self-cleavage | 0.22
U102C U103C | self-cleavage | 0.21
A36G A118G | self-cleavage | 1.47
A59U A140G | self-cleavage | 2.05
C25U U131C | self-cleavage | 1.57
U19C G74C | self-cleavage | 0.18
A118U U131G | self-cleavage | 0.62
A66U U103C | self-cleavage | 0.48
A22U A111G | self-cleavage | 0.02
U108A U130C | self-cleavage | 0.01
A63G U120A | self-cleavage | 0.94
A4U U127C | self-cleavage | 1.34
U37C A86G | self-cleavage | 1.47
A18U U100C | self-cleavage | 2.18
